For each entry below, report its pIC50 value.
Biological target: human DPP1 enzyme (Homo sapiens, UniProt P53634)
Sequence (P53634 25-134 limits assumed): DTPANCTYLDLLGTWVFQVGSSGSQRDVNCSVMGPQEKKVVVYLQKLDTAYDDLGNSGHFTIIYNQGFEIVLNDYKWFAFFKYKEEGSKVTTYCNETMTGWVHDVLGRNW
Sequence (P53634 231-394 limits assumed): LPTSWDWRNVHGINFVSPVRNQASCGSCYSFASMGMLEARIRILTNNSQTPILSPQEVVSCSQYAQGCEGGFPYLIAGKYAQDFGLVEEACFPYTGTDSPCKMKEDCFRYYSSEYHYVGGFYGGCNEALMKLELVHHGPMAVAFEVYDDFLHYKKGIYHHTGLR
Sequence (P53634 395-463 limits assumed): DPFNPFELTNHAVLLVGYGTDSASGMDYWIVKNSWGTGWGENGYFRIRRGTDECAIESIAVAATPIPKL
Assay: Human DPP1 Enzyme IC50 Assay
Type: biochemical
Parameters: was first proteolytically processed into its mature form using recombinant human cathepsin L; purchased R&D Systems
Settings: activated recombinant human DPP1, 400 μM H-Gly-Arg-AMC, 10 minutes pre-incubation at 37° C., pH 6.0; average of n runs; read-out: Avg. IC50 (Human DPP1 enzyme IC50 value ranges)
pIC50: −log10 of the molar value.

[
  {
    "COMPOUND": "CCN1C(=O)Cc2ccc(-c3ccc(C[C@@H](C#N)NC(=O)[C@@H]4CNCC[C@@H](OC)CO4)c(F)c3)cc21 [Compound G2]",
    "pIC50": "> 8.30"
  },
  {
    "COMPOUND": "CN1Cc2cc(F)ccc2-c2ccc(C[C@@H](C#N)NC(=O)[C@@H]3CNCCCO3)cc2C1=O [Compound B3]",
    "pIC50": "< 7.82"
  },
  {
    "COMPOUND": "CO[C@H]1CCO[C@H](C(=O)N[C@H](C#N)Cc2ccc(-c3ccc4c(c3)C3(CCN(C5COC5)CC3)OC4)cc2F)CNC1 [Compound F5]",
    "pIC50": "> 8.30"
  }
]

Can you give me pIC50 for all of these, one by one?
1. CN1C(=O)CCc2cc(-c3ccc(C[C@@H](C#N)NC(=O)[C@@H]4CNCC[C@@H](F)CO4)c(F)c3)ccc21 [Compound A155]
2. CN1CCCc2ncc(-c3ccc(C[C@@H](C#N)NC(=O)[C@@H]4CNCCCO4)cc3)cc21 [Compound A40]
3. CO[C@H]1CCO[C@H](C(=O)N[C@H](C#N)Cc2ccc(-c3cc4c(C)nc(C)cn4c3)cc2)CNC1 [Compound A42]
4. N#C[C@H](Cc1ccc(-c2nc3c(s2)CS(=O)(=O)CC3)cc1)NC(=O)[C@@H]1CNCCCO1 [Compound A6]
5. N#C[C@H](Cc1cc2c(cc1F)-c1cc(C3COC3)c(F)cc1CO2)NC(=O)[C@@H]1CNCCCCO1 [Compound B10-B]
6. CO[C@H]1CCO[C@H](C(=O)N[C@H](C#N)Cc2ccc(-c3ccc4cnn(C5CCN(C)CC5)c4c3)cc2F)CNC1 [Compound H1]
7. Cn1ccc2ncc(-c3ccc(C[C@@H](C#N)NC(=O)[C@@H]4CNCCCO4)cc3)cc21 [Compound A143]

Output:
7.82 to 8.30
< 7.82
< 7.82
< 7.82
7.82 to 8.30
> 8.30
< 7.82
